Item-by-item account of TGI
Test system: SN12C renal
Experiment: NCI tumour cell line growth inhibition, 48 h

Compound: CC(=O)SCCC1c2[nH]c3ccccc3c2CCN1O (centres undefined)
TGI: > 100 µM
--
Compound: COc1cc([C@@H]2c3cc4c(cc3C(O[C@@H]3O[C@@H]5CO[C@@H](c6cccs6)OC5[C@H](O)[C@H]3O)C3COC(=O)[C@@H]32)OCO4)cc(OC)c1O (some centres undefined)
TGI: 5.68 µM
--
Compound: CSc1nc(NC2OC(COC(C)=O)C(OC(C)=O)C(OC(C)=O)C2OC(C)=O)c2c(OC(C)=O)c(C)c(=O)oc2n1 (centres undefined)
TGI: > 100 µM
--
Compound: O=C(Nc1ccc2nc(-c3ccccc3)cn2c1)Oc1ccccc1
TGI: > 100 µM
--
Compound: C#CC[C@]12CC(=O)CC[C@H]1CC(=O)C2
TGI: > 100 µM
--
Compound: Cn1c(=O)c2c(nc(NCCCCl)n2CC(=O)NCCCCl)n(C)c1=O
TGI: > 100 µM
--
Compound: COC(=O)CCC(=O)NC1c2cccc3cccc(c23)Cn2c(=O)n(C)c(=O)n21 (centres undefined)
TGI: > 100 µM
--
Compound: Cc1cccc(C(C)(C)C)c1NC(=O)CCc1n[nH]c(=S)o1
TGI: > 100 µM
--
Compound: CC(=O)OC1CC2OC(Cc3ccccc32)O1 (centres undefined)
TGI: > 100 µM
--
Compound: COc1ccc(/C(=N/Nc2ccc([N+](=O)[O-])cc2)Sc2cc(Cl)c(C)cc2S(N)(=O)=O)cc1
TGI: 4.29 µM
--
Compound: CC(=O)NNc1nc(C)c(C(/C=C/c2cccc([N+](=O)[O-])c2)=N/NC(=S)NN)s1
TGI: > 100 µM
--
Compound: CCOC(=O)CC(NC(=O)c1nc[nH]c1[N+](=O)[O-])C(=O)OCC (centres undefined)
TGI: > 100 µM
--
Compound: CC[C@H](C)[C@H](NC(=O)[C@H]1CCCCN1C)C(=O)N(C)[C@H](CCc1nc(C(=O)N[C@@H](Cc2ccccc2)C[C@H](C)C(=O)OC)cs1)C(C)C
TGI: > 25 µM
--
Compound: CSc1ccc(C2C(Cl)C(=O)N2NC(=O)c2c(Cl)c(Cl)c(Cl)c(Cl)c2-c2nc3ccccc3[nH]2)cc1 (centres undefined)
TGI: 37 µM

* * *

Tested on: OVCAR-5 ovarian
Assay: NCI tumour cell line growth inhibition, 48 h
Item-by-item account of TGI

Smiles Data: CC[C@]12C=CCN3CC[C@@]4(c5ccc(OC)cc5N(C)[C@H]4[C@@](O)(C(=O)OC)[C@@H]1OC(C)=O)[C@@H]32
Target Entity: OVCAR-5 ovarian
TGI: > 200 µM
--
Smiles Data: COc1cc(-c2c(C#N)c(N)n3c(nc4ccccc43)c2C#N)cc(Br)c1OC
Target Entity: OVCAR-5 ovarian
TGI: > 100 µM
--
Smiles Data: O=C1c2ccccc2S[C@@H](O)[C@@H]2CCCN12
Target Entity: OVCAR-5 ovarian
TGI: > 100 µM

* * *

Test system: KM20L2 colon
Experiment: NCI tumour cell line growth inhibition, 48 h
Item-by-item account of TGI

Compound: CCN(CC)C(=O)C/C(C)=N/NC(=O)c1ccncc1
TGI: > 100 µM
--
Compound: CCCN(CCCCC(NC(C)=O)C(=O)NCc1ccccc1)C(=O)N(CCCl)N=O (stereo not drawn)
TGI: > 100 µM
--
Compound: COc1ccc(C(=O)O)c(Cc2cccc3ccccc23)c1
TGI: > 100 µM
--
Compound: CCc1nc2ccccc2c(=O)n1/N=C(\N=Nc1ccc(Cl)cc1)c1ccccc1Cl
TGI: > 100 µM
--
Compound: COc1ccc2c(c1)CCCc1cn[nH]c1-2
TGI: > 100 µM
--
Compound: O=C(/C=C/c1ccccc1Cl)c1ccccc1Cl
TGI: 33.3 µM
--
Compound: Oc1ccc2ccccc2c1N=Nc1ccc(F)cc1
TGI: > 100 µM
--
Compound: COc1cc(C2c3cc4c(cc3[C@H](OCCN(C)C)[C@@H]3COC(=O)C23)OCO4)cc(OC)c1O (stereo partly drawn)
TGI: 2.98 µM

* * *

System: IGROV1 ovarian
Experiment: NCI tumour cell line growth inhibition, 48 h
Value Kind: TGI

Molecule: C[C@]12CC[C@@H]3c4ccc(O)cc4C[C@@H](CCCCCCCCCS(=O)CCCC(F)(F)C(F)(F)F)[C@H]3[C@@H]1CC[C@@H]2O (stereo partly drawn)
Assay Result: > 100 µM
--
Molecule: COc1ccc(-c2c(C#N)c(NC(=S)NC(=O)c3ccccc3)nc3c2CCCC3)cc1OC
Assay Result: > 100 µM
--
Molecule: COc1ccc(OC)c(/C=C/NC=O)c1
Assay Result: > 100 µM

* * *

Tested on: NCI-H226 lung
Assay: NCI tumour cell line growth inhibition, 48 h

Compound: C=C1CC[C@@]2(OC1)OC1C[C@H]3[C@@H]4CC=C5C[C@@H](O)CC(OC6OCC(OC(=O)[C@@H](O)[C@@H](C)CC)C(OC(C)=O)C6OC6OC(C)C(O)C(O)C6O)[C@]5(C)[C@H]4CC[C@]3(C)C1[C@@H]2C (stereo not given in full)
Reading Unit: µM
Cmp: =
TGI: 6.01
//
Compound: CCOC(=O)NC(=O)c1cn(CCCOC(=O)NCCCCCCNC(=O)OCCCn2c(=O)c(C(=O)NC(=O)OCC)cn(C)c2=O)c(=O)n(C)c1=O
Reading Unit: µM
Cmp: >
TGI: 100
//
Compound: O=[N+]([O-])c1ccccc1N=Nc1c(O)sc2ccccc12
Reading Unit: µM
Cmp: >
TGI: 100
//
Compound: O=[N+]([O-])C(C(Cl)=C(Cl)Cl)=C(N1CCOCC1)N1CCOCC1
Reading Unit: µM
Cmp: >
TGI: 100
//
Compound: COc1ccc(C2CC(=O)c3c(O)c(OC)c(OC)c(OC)c3O2)c(O)c1 (stereo not given)
Reading Unit: µM
Cmp: =
TGI: 24.7

* * *

System: SNB-75 CNS
Assay: NCI tumour cell line growth inhibition, 48 h
Item-by-item account of TGI
Value Kind: TGI

Compound: Cc1ccc(S(=O)(=O)OC2C3OC(C)(C)OC3OC2C(c2cc(O)c3c(c2O)C(=O)c2ccccc2C3=O)c2cc(O)c3c(c2O)C(=O)c2ccccc2C3=O)cc1 (stereo not drawn)
Assay Result: > 10 µM
--
Compound: COc1ccc(C(=O)O)c(Cc2cccc3ccccc23)c1
Assay Result: > 100 µM
--
Compound: CC(C)CC(N)C(=O)O (stereo not drawn)
Assay Result: > 100 µM

* * *

System: U251 CNS
Experiment: NCI tumour cell line growth inhibition, 48 h
Value Kind: TGI

Molecule: Cc1ccc(NC(=O)C2C(=O)N(c3ccc(C)c(C)c3)C(=O)/C2=N/O)cc1C (stereo not drawn)
Assay Result: > 100 µM

Molecule: N#C/C(C(=S)Nc1ccccc1)=C1/NN=C2c3ccccc3C(=O)NN21
Assay Result: > 100 µM

Molecule: CC1=CC(=O)NP(=O)(Oc2ccc(C)cc2)N1 (stereo not drawn)
Assay Result: > 100 µM

* * *

Tested on: OVCAR-4 ovarian
Assay: NCI tumour cell line growth inhibition, 48 h

Smiles Data: Nc1ccc(C(=O)Nn2c(-c3ccccc3)nc3ccccc3c2=O)cc1
TGI: > 100 µM

Smiles Data: CN(C)CC(CN(C)C)c1ccccn1
TGI: > 100 µM

Smiles Data: C[C@]12CC[C@@H]3c4ccc(Oc5nc(N6CC6)nc(N6CC6)n5)cc4CC[C@H]3[C@@H]1CCC2=O
TGI: 15.2 µM

* * *

Tested on: SK-MEL-2 melanoma
Experiment: NCI tumour cell line growth inhibition, 48 h
Value Kind: TGI

Compound: CN(C)C(=S)SN(C)C(=O)Nc1ccccc1
Assay Result: > 100 µM
--
Compound: Cc1c(Cc2ccccc2)n(COCCCO)c(=O)[nH]c1=O
Assay Result: > 100 µM
--
Compound: COC(=O)CCC(=O)NC1c2cccc3cccc(c23)Cn2c(=O)n(C)c(=O)n21 (stereo not given)
Assay Result: > 100 µM
--
Compound: CCCN(CCCCC(NC(C)=O)C(=O)NCc1ccccc1)C(=O)N(CCCl)N=O (stereo not given)
Assay Result: > 100 µM
--
Compound: O=C1NC(Nc2cccc(Cl)c2)=N/C1=C\c1ccc(Cl)c(Cl)c1
Assay Result: 6.77 µM

* * *

System: SW-620 colon
Assay: NCI tumour cell line growth inhibition, 48 h
Item-by-item account of TGI
Value Kind: TGI

Compound: CC1=CC(=O)NP(=O)(Oc2ccc(C)cc2)N1 (centres undefined)
Target Entity: SW-620 colon
Assay Result: > 100 µM

Compound: O=C(C[C@@H](C(=O)NCc1cccc(C(F)(F)F)c1)N1C(=O)[C@@H](N2C(=O)OC[C@@H]2c2ccccc2)[C@H]1/C=C/c1ccccc1)NC1CCN(Cc2ccccc2)CC1
Target Entity: SW-620 colon
Assay Result: 17.3 µM

Compound: O=C(c1ccc(Cl)cc1Cl)N(C(=O)N1CCCCC1)c1ccccc1
Target Entity: SW-620 colon
Assay Result: > 100 µM

Compound: Cc1oc2nc(N(C)C)nc(Cl)c2c1C
Target Entity: SW-620 colon
Assay Result: > 100 µM

Compound: COc1cc(C(=O)O[C@H](C(N)=O)[C@]2(C)CO2)c2ccccc2c1
Target Entity: SW-620 colon
Assay Result: > 100 µM

Compound: O=c1[nH]nc(-c2cccc(Br)c2)[nH]1
Target Entity: SW-620 colon
Assay Result: > 100 µM

Compound: Brc1ccc2c(-c3nc(-c4c[nH]c5ccc(Br)cc45)cs3)c[nH]c2c1
Target Entity: SW-620 colon
Assay Result: 24.4 µM

Compound: N#CCCN(c1ccc(/C=C2\N=C(c3ccc(Cl)cc3)OC2=O)cc1)S(=O)(=O)c1ccccc1
Target Entity: SW-620 colon
Assay Result: > 100 µM

Compound: COc1ccc(-n2c(SCc3cc(OC)c(OC)c(OC)c3)nc3ccc(C)cc3c2=O)cc1
Target Entity: SW-620 colon
Assay Result: > 100 µM

Compound: COc1cc(C2c3cc4c(cc3[C@H](OCCN(C)C)[C@@H]3COC(=O)C23)OCO4)cc(OC)c1O (some centres undefined)
Target Entity: SW-620 colon
Assay Result: 3.4 µM

Compound: CC(C)=[CH][Sb]([Br])([CH]=C(C)C)([CH]=C(C)C)[CH]=C(C)C
Target Entity: SW-620 colon
Assay Result: > 100 µM

Compound: CSc1nc(NC2OC(COC(C)=O)C(OC(C)=O)C(OC(C)=O)C2OC(C)=O)c2c(OC(C)=O)c(C)c(=O)oc2n1 (centres undefined)
Target Entity: SW-620 colon
Assay Result: > 100 µM

Compound: O=C(CC(=O)n1nc(-c2ccccc2)c(N=Nc2ccc(Cl)cc2)c1-c1ccccc1)Nc1cccc(Cl)c1
Target Entity: SW-620 colon
Assay Result: > 100 µM

Compound: CC(C)=CC(=O)N1CCN(C(=O)C=C(C)C)CC1
Target Entity: SW-620 colon
Assay Result: > 100 µM

Compound: O=c1c2ccccc2nnn1-c1n[nH]c2ccccc12
Target Entity: SW-620 colon
Assay Result: > 100 µM

Compound: CNC=O.[O]=[Ge].[O]=[Ge].[O]=[Ge].[O]=[Ge][OH].[O]=[Ge][OH]
Target Entity: SW-620 colon
Assay Result: > 100 µM

Compound: COC(=O)c1ccc2c(c1)CC1(C2)Cc2cc3c(cc2C1=O)CCC3 (centres undefined)
Target Entity: SW-620 colon
Assay Result: > 100 µM

Compound: Cc1nc(N)c(N2CCNCC2)c(=O)[nH]1
Target Entity: SW-620 colon
Assay Result: > 100 µM

Compound: O=C(O)c1cc(N=Nc2ccc([As](=O)(O)O)cc2)ccc1O
Target Entity: SW-620 colon
Assay Result: > 100 µM

Data provenance: PubChem BioAssay (NCI)
